Measured Stability S accompanies every entry in the list below.
# method: Stability of each chemical component in rat plasma
# Format: in vitro ADME
# condition.context: 500 ng/mL, room temperature for 24 h
Your answer should be a plain number; it is taken to be in %.

| smiles.input | Stability S, % |
| --- | --- |
| O=C1c2cccc(O)c2C(=O)c2c(O)cc(CO)cc21 | 98.50 |
| O=C(O)c1cc(O)c2c(c1)C(=O)c1cccc(O)c1C2=O | 89.40 |
| Cc1cc(O)c2c(c1)C(=O)c1cccc(O)c1C2=O | 90.40 |
| Cc1cc(O)c2c(c1)C(=O)c1cc(O)cc(O)c1C2=O | 99.60 |

Look up Stability S for this molecule: COc1cc(O)c2c(c1)C(=O)c1cc(C)cc(O)c1C2=O
90.50

----------
# method: Pharmacokinetics of five components in control
# Type: in vivo, SD rats
# condition.context: male, SD, rat, plasma, po, 1.5 mL/200 g, Tmax, RhRR of control group; single oral 1.5 mL/200 g RhRR decoction; plasma; n = 6
Measured Tmax accompanies every entry in the list below.
Your answer should be a plain number; it is taken to be in h.

| molecule | Tmax (h) |
| --- | --- |
| O=C1c2cccc(O)c2C(=O)c2c(O)cc(CO)cc21 [Ae, Aloe emodin] | 2 |
| Cc1cc(O)c2c(c1)C(=O)c1cccc(O)c1C2=O [Ch, Chrysophanol] | 1 |

Turning now to a further record.
Look up Tmax for this molecule: Cc1cc(O)c2c(c1)C(=O)c1cc(O)cc(O)c1C2=O [Em, Emodin]
0.5

----------
# method: Pharmacokinetics of five components in control
# Assay type: in vivo, SD rats
# condition.context: male, SD, rat, plasma, po, 1.5 mL/200 g, AUC(0−t), RhRR-EuS of control group; single oral 1.5 mL/200 g RhRR-EuS decoction; plasma; n = 6
reported.metric: AUC(0-t) (ng·h/mL)
Your answer should be a plain number; it is taken to be in ng·h/mL.

As a guide, the following entries are already answered.
| compound | result.units | AUC(0-t) |
| --- | --- | --- |
| Cc1cc(O)c2c(c1)C(=O)c1cc(O)cc(O)c1C2=O [Em, Emodin] | ng·h/mL | 68.3 |
| O=C(O)c1cc(O)c2c(c1)C(=O)c1cccc(O)c1C2=O [Rh, Rhein] | ng·h/mL | 1600 |
| Cc1cc(O)c2c(c1)C(=O)c1cccc(O)c1C2=O [Ch, Chrysophanol] | ng·h/mL | 739 |
| O=C1c2cccc(O)c2C(=O)c2c(O)cc(CO)cc21 [Ae, Aloe emodin] | ng·h/mL | 443 |

Turning now to a further record.
Look up AUC(0-t) for this compound: COc1cc(O)c2c(c1)C(=O)c1cc(C)cc(O)c1C2=O [Ph, Physcion]
136

----------
# method: Pharmacokinetics of five components in control
# Assay type: in vivo, SD rats
# condition.context: male, SD, rat, plasma, po, 1.5 mL/200 g, T1/2, RhRR of control group; single oral 1.5 mL/200 g RhRR decoction; plasma; n = 6
reported.metric: half-life

Look up half-life for this compound: Cc1cc(O)c2c(c1)C(=O)c1cccc(O)c1C2=O
3.64 h

----------
Measured AUC(0-t) accompanies every entry in the list below.
# method: Pharmacokinetics of five components in control
# Assay type: in vivo, SD rats
# condition.context: male, SD, rat, plasma, po, 1.5 mL/200 g, AUC(0−t), RhRR of control group; single oral 1.5 mL/200 g RhRR decoction; plasma; n = 6
Your answer should be a plain number; it is taken to be in ng·h/mL.

| smiles.input | result.units | AUC(0-t) |
| --- | --- | --- |
| COc1cc(O)c2c(c1)C(=O)c1cc(C)cc(O)c1C2=O | ng·h/mL | 136 |
| O=C1c2cccc(O)c2C(=O)c2c(O)cc(CO)cc21 | ng·h/mL | 474 |
| Cc1cc(O)c2c(c1)C(=O)c1cc(O)cc(O)c1C2=O | ng·h/mL | 67.7 |

Look up AUC(0-t) for this compound: O=C(O)c1cc(O)c2c(c1)C(=O)c1cccc(O)c1C2=O
1440

Look up AUC(0-t) for this compound: Cc1cc(O)c2c(c1)C(=O)c1cccc(O)c1C2=O
662

----------
# method: Stability of each chemical component in rat plasma
# Assay type: in vitro ADME
# condition.context: 100 ng/mL, −4 °C for 14 d
reported.metric: Stability S (%)
Your answer should be a plain number; it is taken to be in %.

| compound | reported.metric | result.units | observed.measurement |
| --- | --- | --- | --- |
| O=C1c2cccc(O)c2C(=O)c2c(O)cc(CO)cc21 [Ae, Aloe emodin] | Stability S | % | 112 |
| COc1cc(O)c2c(c1)C(=O)c1cc(C)cc(O)c1C2=O [Ph, Physcion] | Stability S | % | 102 |
| Cc1cc(O)c2c(c1)C(=O)c1cccc(O)c1C2=O [Ch, Chrysophanol] | Stability S | % | 103 |
| O=C(O)c1cc(O)c2c(c1)C(=O)c1cccc(O)c1C2=O [Rh, Rhein] | Stability S | % | 94.60 |

Look up Stability S for this compound: Cc1cc(O)c2c(c1)C(=O)c1cc(O)cc(O)c1C2=O [Em, Emodin]
108

----------
# method: Pharmacokinetics of five components in control
# Type: in vivo, SD rats
# condition.context: male, SD, rat, plasma, po, 1.5 mL/200 g, MRT0−t, RhRR of control group; single oral 1.5 mL/200 g RhRR decoction; plasma; n = 6
MRT last under 10 h gets 1.0, anything at or over 10 h gets 0.0.

| smiles.input | category |
| --- | --- |
| O=C1c2cccc(O)c2C(=O)c2c(O)cc(CO)cc21 | 0.0 |
| O=C(O)c1cc(O)c2c(c1)C(=O)c1cccc(O)c1C2=O | 1.0 |
| Cc1cc(O)c2c(c1)C(=O)c1cccc(O)c1C2=O | 1.0 |
| Cc1cc(O)c2c(c1)C(=O)c1cc(O)cc(O)c1C2=O | 1.0 |

Consider the additional compound presented here.
Lab note: MRT last threshold 10 h. Does this compound come in strictly under it? COc1cc(O)c2c(c1)C(=O)c1cc(C)cc(O)c1C2=O
0.0

----------
# method: Pharmacokinetics of five components in control
# Type: in vivo, SD rats
# condition.context: male, SD, rat, plasma, po, 1.5 mL/200 g, T1/2, RhRR-EuS of control group; single oral 1.5 mL/200 g RhRR-EuS decoction; plasma; n = 6
half-life under 3 h gets 1 (yes), anything at or over 3 h gets 0 (no).

Worked set:
| molecule | category |
| --- | --- |
| O=C(O)c1cc(O)c2c(c1)C(=O)c1cccc(O)c1C2=O [Rh, Rhein] | 1 (yes) |
| Cc1cc(O)c2c(c1)C(=O)c1cc(O)cc(O)c1C2=O [Em, Emodin] | 0 (no) |
| COc1cc(O)c2c(c1)C(=O)c1cc(C)cc(O)c1C2=O [Ph, Physcion] | 0 (no) |

Consider the additional molecule presented here.
Lab note: half-life threshold 3 h. Does this molecule come in strictly under it? Cc1cc(O)c2c(c1)C(=O)c1cccc(O)c1C2=O [Ch, Chrysophanol]
1 (yes)

----------
# method: Pharmacokinetics of five components in control
# Assay type: in vivo, SD rats
# condition.context: male, SD, rat, plasma, po, 1.5 mL/200 g, AUC(0−i), RhRR-EuS of control group; single oral 1.5 mL/200 g RhRR-EuS decoction; plasma; n = 6
reported.metric: log10(AUC) (log10 of the value in ng·h/mL)
Hey, these are logged values: log10 of AUC, ng·h/mL being the unit before logging.

| compound | log10(AUC) |
| --- | --- |
| Cc1cc(O)c2c(c1)C(=O)c1cccc(O)c1C2=O [Ch, Chrysophanol] | 2.88 |

Look up log10(AUC) for this compound: O=C(O)c1cc(O)c2c(c1)C(=O)c1cccc(O)c1C2=O [Rh, Rhein]
3.24

Look up log10(AUC) for this compound: Cc1cc(O)c2c(c1)C(=O)c1cc(O)cc(O)c1C2=O [Em, Emodin]
2.19

Look up log10(AUC) for this compound: O=C1c2cccc(O)c2C(=O)c2c(O)cc(CO)cc21 [Ae, Aloe emodin]
2.69

Look up log10(AUC) for this compound: COc1cc(O)c2c(c1)C(=O)c1cc(C)cc(O)c1C2=O [Ph, Physcion]
2.39

----------
# method: Pharmacokinetics of five components in control
# Type: in vivo, SD rats
# condition.context: male, SD, rat, plasma, po, 1.5 mL/200 g, MRT0−t, RhRR-EuS of control group; single oral 1.5 mL/200 g RhRR-EuS decoction; plasma; n = 6
Measured MRT last accompanies every entry in the list below.
Answer with the value and then the unit.

As a guide, the following entries are already answered.
| smiles.input | observed.measurement |
| --- | --- |
| O=C1c2cccc(O)c2C(=O)c2c(O)cc(CO)cc21 | 5.78 h |
| Cc1cc(O)c2c(c1)C(=O)c1cccc(O)c1C2=O | 5.64 h |
| O=C(O)c1cc(O)c2c(c1)C(=O)c1cccc(O)c1C2=O | 5.44 h |
| Cc1cc(O)c2c(c1)C(=O)c1cc(O)cc(O)c1C2=O | 18.3 h |

Turning now to a further record.
Look up MRT last for this compound: COc1cc(O)c2c(c1)C(=O)c1cc(C)cc(O)c1C2=O
14.7 h
